// provenance: paper PMC9457941

# SYSTEM NAME: GSK3β (Homo sapiens)
# Construct: host or cells: Sf9 insect cells (baculovirus)
# Sequence (P49841 whole entry): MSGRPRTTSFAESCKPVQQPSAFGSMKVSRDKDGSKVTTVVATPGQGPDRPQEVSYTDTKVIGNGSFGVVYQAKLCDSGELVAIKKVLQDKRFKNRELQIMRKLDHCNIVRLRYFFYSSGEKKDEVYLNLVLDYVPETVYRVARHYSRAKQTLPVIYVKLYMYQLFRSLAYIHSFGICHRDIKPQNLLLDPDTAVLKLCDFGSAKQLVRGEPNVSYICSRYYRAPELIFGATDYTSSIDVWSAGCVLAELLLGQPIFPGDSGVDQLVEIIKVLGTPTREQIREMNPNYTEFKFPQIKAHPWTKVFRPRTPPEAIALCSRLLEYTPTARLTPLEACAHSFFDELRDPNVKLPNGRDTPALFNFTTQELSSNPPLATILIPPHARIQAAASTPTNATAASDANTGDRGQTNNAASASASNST
# ASSAY PROCEDURE: ADP-Glo kinase inhibition assay, GSK3β
# Type: biochemical
# MEASUREMENT PARAMETERS: read-out: GSK3 % residual activity at 1 μM
I'd be grateful if you could share measured remaining activity at 1 µM for these entries.
Write the value in % as a bare number.

Per the records, this compound ( `CCn1ncc2c(C)c3cnccc3c([N+](=O)[O-])c21` ) has remaining activity at 1 µM equal to 39

Per the records, this compound ( `Cn1ncc2cc3cnccc3c(N)c21` ) has remaining activity at 1 µM equal to 68

Per the records, this compound ( `CCCCc1c2cnccc2c([N+](=O)[O-])c2c1cnn2CC` ) has remaining activity at 1 µM equal to 39

----------
I'd be grateful if you could share measured remaining activity at 10 µM for these entries.
# SYSTEM NAME: Pim-1 (Homo sapiens)
# Construct: host or cells: bacteria
# Sequence (P11309 whole entry): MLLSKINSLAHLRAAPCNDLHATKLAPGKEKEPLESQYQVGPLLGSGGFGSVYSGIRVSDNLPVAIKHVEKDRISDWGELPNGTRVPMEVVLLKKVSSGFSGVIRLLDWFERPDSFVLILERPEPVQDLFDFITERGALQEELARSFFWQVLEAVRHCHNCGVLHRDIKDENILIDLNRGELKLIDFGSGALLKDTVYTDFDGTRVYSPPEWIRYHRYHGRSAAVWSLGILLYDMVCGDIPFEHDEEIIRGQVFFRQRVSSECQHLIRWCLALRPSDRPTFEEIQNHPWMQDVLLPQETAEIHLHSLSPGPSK
# ASSAY PROCEDURE: ADP-Glo kinase inhibition assay, Pim-1
# Assay type: biochemical
# MEASUREMENT PARAMETERS: 10 μM compound, 10 μM ATP, duplicate; read-out: PIM1 % residual activity at 10 μM
Write the value in % as a bare number.

// molecule `CCCCc1c2cnccc2c([N+](=O)[O-])c2c1cnn2CC` , assay Pim-1 (Homo sapiens), remaining activity at 10 µM value: 35

// molecule `CCn1ncc2c(C3CC3)c3cnccc3c([N+](=O)[O-])c21` , assay Pim-1 (Homo sapiens), remaining activity at 10 µM value: 82

// molecule `CCCc1c2cnccc2c([N+](=O)[O-])c2c1cnn2CC` , assay Pim-1 (Homo sapiens), remaining activity at 10 µM value: 88

// molecule Nc1c2ccncc2cc2cn[nH]c12 [Compound 2a, 1-H-pyrazolo[3,4-g]isoquinolin-9-amine] , assay Pim-1 (Homo sapiens), remaining activity at 10 µM value: 90

// molecule `CCn1ncc2cc3cnccc3c([N+](=O)[O-])c21` , assay Pim-1 (Homo sapiens), remaining activity at 10 µM value: 70

// molecule `CCn1ncc2c(C)c3cnccc3c([N+](=O)[O-])c21` , assay Pim-1 (Homo sapiens), remaining activity at 10 µM value: 97

----------
# SYSTEM NAME: CDK9/CyclinT (Homo sapiens)
# Construct: host or cells: Sf9 insect cells (baculovirus)
# Sequence (O60563 whole entry): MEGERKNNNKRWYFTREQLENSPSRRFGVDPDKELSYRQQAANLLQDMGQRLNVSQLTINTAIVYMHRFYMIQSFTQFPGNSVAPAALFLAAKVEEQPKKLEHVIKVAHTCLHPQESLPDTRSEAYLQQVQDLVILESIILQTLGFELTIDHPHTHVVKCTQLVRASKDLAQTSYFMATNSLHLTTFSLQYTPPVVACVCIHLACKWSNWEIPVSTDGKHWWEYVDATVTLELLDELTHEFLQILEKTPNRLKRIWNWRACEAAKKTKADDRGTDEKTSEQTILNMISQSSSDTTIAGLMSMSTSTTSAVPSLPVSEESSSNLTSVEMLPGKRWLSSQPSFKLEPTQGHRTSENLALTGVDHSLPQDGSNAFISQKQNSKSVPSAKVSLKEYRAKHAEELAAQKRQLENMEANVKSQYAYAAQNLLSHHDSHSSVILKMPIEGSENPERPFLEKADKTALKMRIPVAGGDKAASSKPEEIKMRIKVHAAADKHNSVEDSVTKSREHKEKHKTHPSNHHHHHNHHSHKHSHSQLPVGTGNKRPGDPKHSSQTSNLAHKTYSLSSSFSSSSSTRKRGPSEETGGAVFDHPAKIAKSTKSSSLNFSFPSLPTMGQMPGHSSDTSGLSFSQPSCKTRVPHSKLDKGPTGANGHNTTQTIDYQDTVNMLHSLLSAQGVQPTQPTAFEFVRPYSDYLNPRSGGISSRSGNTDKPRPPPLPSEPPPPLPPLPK
# Sequence (P50750 whole entry): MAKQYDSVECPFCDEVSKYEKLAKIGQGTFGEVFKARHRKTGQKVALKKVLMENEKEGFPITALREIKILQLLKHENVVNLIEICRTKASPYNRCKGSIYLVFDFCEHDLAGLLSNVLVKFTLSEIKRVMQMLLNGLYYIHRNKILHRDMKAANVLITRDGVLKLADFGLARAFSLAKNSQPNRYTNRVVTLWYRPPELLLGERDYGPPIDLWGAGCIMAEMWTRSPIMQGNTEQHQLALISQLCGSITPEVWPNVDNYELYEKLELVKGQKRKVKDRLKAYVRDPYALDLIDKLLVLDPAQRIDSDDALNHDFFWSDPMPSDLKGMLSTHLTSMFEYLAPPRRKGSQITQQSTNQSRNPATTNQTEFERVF
# ASSAY PROCEDURE: ADP-Glo kinase inhibition assay, CDK9/CyclinT
# Assay type: biochemical
# MEASUREMENT PARAMETERS: read-out: CDK9 % residual activity at 10 μM
I'd be grateful if you could share measured remaining activity at 10 µM for these entries.
Write the value in % as a bare number.

Per the records, this compound ( `CCCc1c2cnccc2c([N+](=O)[O-])c2c1cnn2CC` ) has remaining activity at 10 µM equal to 4

Per the records, this compound ( `CCc1c2cnccc2c([N+](=O)[O-])c2c1cnn2CC` ) has remaining activity at 10 µM equal to 0

Per the records, this compound ( `CCn1ncc2cc3cnccc3c([N+](=O)[O-])c21` ) has remaining activity at 10 µM equal to 23

Per the records, this compound ( Nc1c2ccncc2cc2cn[nH]c12 [Compound 2a, 1-H-pyrazolo[3,4-g]isoquinolin-9-amine] ) has remaining activity at 10 µM equal to 10

Per the records, this compound ( `CCCCc1c2cnccc2c([N+](=O)[O-])c2c1cnn2CC` ) has remaining activity at 10 µM equal to 10

Per the records, this compound ( `CCn1ncc2c(C3CC3)c3cnccc3c([N+](=O)[O-])c21` ) has remaining activity at 10 µM equal to 11

Per the records, this compound ( `O=[N+]([O-])c1c2ccncc2cc2cn[nH]c12` ) has remaining activity at 10 µM equal to 48

Per the records, this compound ( `Cn1ncc2cc3cnccc3c([N+](=O)[O-])c21` ) has remaining activity at 10 µM equal to 35

----------
I'd be grateful if you could share measured melting point for these entries.

Per the records, this compound ( `CCn1ncc2c(C3CC3)c3cnccc3c([N+](=O)[O-])c21` ) has melting point equal to 97 °C

Per the records, this compound ( `Cn1ncc2cc3cnccc3c(N)c21` ) has melting point equal to 174 to 175 °C

Per the records, this compound ( `O=[N+]([O-])c1c2ccncc2cc2cn[nH]c12` ) has melting point equal to > 250 °C

----------
# SYSTEM NAME: MmCLK1 (Mus musculus)
# Construct: host or cells: bacteria
# Sequence (P22518 whole entry): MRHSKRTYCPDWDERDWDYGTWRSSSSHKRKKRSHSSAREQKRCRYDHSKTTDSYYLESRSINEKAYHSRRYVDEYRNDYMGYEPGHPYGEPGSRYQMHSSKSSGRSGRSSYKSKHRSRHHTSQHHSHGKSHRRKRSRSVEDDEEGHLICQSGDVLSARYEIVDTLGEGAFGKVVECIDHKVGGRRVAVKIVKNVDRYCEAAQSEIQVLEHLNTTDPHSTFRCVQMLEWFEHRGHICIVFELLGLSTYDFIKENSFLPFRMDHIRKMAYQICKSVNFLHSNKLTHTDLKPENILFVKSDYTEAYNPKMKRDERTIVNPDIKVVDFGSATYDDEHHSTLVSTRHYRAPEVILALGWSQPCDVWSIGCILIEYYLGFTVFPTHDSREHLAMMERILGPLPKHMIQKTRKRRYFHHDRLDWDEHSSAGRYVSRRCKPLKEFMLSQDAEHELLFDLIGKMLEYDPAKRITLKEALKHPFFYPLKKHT
# ASSAY PROCEDURE: ADP-Glo kinase inhibition assay, CLK1
# Format: biochemical
# MEASUREMENT PARAMETERS: read-out: CLK1 % residual activity at 10 μM
I'd be grateful if you could share measured remaining activity at 10 µM for these entries.
Write the value in % as a bare number.

// molecule Nc1c2ccncc2cc2cn[nH]c12 [Compound 2a, 1-H-pyrazolo[3,4-g]isoquinolin-9-amine] , assay MmCLK1 (Mus musculus), remaining activity at 10 µM value: 8

// molecule `CCn1ncc2cc3cncc(Br)c3c([N+](=O)[O-])c21` , assay MmCLK1 (Mus musculus), remaining activity at 10 µM value: 18

// molecule `O=[N+]([O-])c1c2ccncc2cc2cn[nH]c12` , assay MmCLK1 (Mus musculus), remaining activity at 10 µM value: 30

----------
I'd be grateful if you could share measured remaining activity at 1 µM for these entries.
# SYSTEM NAME: CDK5/p25 (Homo sapiens, UniProt Q00535)
# Construct: host or cells: bacteria
# Sequence (Q00535 whole entry): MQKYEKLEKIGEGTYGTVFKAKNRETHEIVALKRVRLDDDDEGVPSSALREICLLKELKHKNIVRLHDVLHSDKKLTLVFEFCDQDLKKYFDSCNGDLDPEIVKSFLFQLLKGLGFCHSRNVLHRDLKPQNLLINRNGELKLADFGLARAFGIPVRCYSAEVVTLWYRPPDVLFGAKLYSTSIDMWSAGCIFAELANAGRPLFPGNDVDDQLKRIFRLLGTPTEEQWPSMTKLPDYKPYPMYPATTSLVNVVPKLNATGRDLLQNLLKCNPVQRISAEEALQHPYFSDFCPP
# Sequence (Q15078 99-307, further chain): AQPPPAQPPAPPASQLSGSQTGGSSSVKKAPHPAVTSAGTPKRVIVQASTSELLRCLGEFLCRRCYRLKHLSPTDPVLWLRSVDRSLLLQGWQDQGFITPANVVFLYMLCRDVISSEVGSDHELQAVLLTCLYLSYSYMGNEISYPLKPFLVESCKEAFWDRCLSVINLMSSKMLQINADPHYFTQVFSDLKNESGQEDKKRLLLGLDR
# ASSAY PROCEDURE: ADP-Glo kinase inhibition assay, CDK5/p25
# Assay type: biochemical
# MEASUREMENT PARAMETERS: read-out: CDK5 % residual activity at 1 μM
Phrase the answer as number then unit, nothing more needed.

// compound Cn1ncc2cc3cnccc3c(N)c21 [Compound 2b] , assay CDK5/p25 (Homo sapiens, UniProt Q00535), remaining activity at 1 µM value: 72%

// compound CCCCc1c2cnccc2c([N+](=O)[O-])c2c1cnn2CC [Compound 3e] , assay CDK5/p25 (Homo sapiens, UniProt Q00535), remaining activity at 1 µM value: 82%

// compound Cn1ncc2cc3cnccc3c([N+](=O)[O-])c21 [Compound 1b] , assay CDK5/p25 (Homo sapiens, UniProt Q00535), remaining activity at 1 µM value: 95%

// compound CCn1ncc2cc3cnccc3c(N)c21 [Compound 2c] , assay CDK5/p25 (Homo sapiens, UniProt Q00535), remaining activity at 1 µM value: 65%

// compound CCn1ncc2c(C3CC3)c3cnccc3c([N+](=O)[O-])c21 [Compound 3d] , assay CDK5/p25 (Homo sapiens, UniProt Q00535), remaining activity at 1 µM value: 67%

// compound CCCc1c2cnccc2c([N+](=O)[O-])c2c1cnn2CC [Compound 3c] , assay CDK5/p25 (Homo sapiens, UniProt Q00535), remaining activity at 1 µM value: 54%

----------
# SYSTEM NAME: Haspin-kd (human, kinase domain, amino acids 470–798) (Homo sapiens, UniProt Q8TF76)
# Construct: Haspin-kd (human, kinase domain, amino acids 470–798, recombinant, expressed in bacteria); host or cells: bacteria
# Sequence (Q8TF76 470-798): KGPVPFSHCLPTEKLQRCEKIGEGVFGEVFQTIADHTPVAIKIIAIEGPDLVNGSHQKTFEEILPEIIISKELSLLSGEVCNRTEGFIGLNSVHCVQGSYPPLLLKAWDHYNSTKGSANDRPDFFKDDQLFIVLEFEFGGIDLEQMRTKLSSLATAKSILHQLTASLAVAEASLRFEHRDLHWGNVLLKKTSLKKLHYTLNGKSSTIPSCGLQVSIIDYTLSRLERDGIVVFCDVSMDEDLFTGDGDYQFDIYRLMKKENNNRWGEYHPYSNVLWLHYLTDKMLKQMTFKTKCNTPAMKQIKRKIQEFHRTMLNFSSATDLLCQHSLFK
# ASSAY PROCEDURE: ADP-Glo kinase inhibition assay, Haspin
# Assay type: biochemical
# MEASUREMENT PARAMETERS: read-out: Haspin % residual activity at 10 μM
I'd be grateful if you could share measured remaining activity at 10 µM for these entries.
Phrase the answer as number then unit, nothing more needed.

Per the records, this compound ( `CCCc1c2cnccc2c([N+](=O)[O-])c2c1cnn2CC` ) has remaining activity at 10 µM equal to 17%

Per the records, this compound ( `Cn1ncc2cc3cnccc3c(N)c21` ) has remaining activity at 10 µM equal to 14%

Per the records, this compound ( `CCc1c2cnccc2c([N+](=O)[O-])c2c1cnn2CC` ) has remaining activity at 10 µM equal to 10%

Per the records, this compound ( `Cn1ncc2cc3cnccc3c([N+](=O)[O-])c21` ) has remaining activity at 10 µM equal to 9%
